target: NAD-dependent protein deacylase sirtuin-5, mitochondrial (Homo sapiens) (UniProt Q9NXA8); assay: blockers of sirtuin-5 deacylase activity – biochemical, fluorescence imaging, single point, set 5, primary screen (AID 652115); conditions: Purified SirT5, succinyl-peptide AMC, trypsin-coupled fluorescence; at 15 µM; active compounds read high
Sequence (Q9NXA8 whole entry, looked up): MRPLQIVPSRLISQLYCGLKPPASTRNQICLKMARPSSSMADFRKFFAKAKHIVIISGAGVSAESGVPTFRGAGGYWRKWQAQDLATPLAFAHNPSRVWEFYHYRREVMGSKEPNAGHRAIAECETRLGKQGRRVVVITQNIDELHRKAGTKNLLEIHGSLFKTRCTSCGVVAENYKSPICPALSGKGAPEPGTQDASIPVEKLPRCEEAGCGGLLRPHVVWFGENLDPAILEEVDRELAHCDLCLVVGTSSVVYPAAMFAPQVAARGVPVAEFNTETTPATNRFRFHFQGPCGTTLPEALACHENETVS
Among all 330,000 compounds or so, about 3,800 (1.2%) were called active. This excerpt belongs to a sample that is enriched for actives.
measure: inhibition (%)

compound | test-result
CN(C)CC(=O)Nc1ccc2c(c1)[C@H]1C[C@@H](CC(=O)NCc3ccc(Cl)cc3)O[C@@H](CO)[C@H]1O2 | 4.32
CN1c2ccc(C3=CCCCC3)cc2[C@@H]2[C@@H](CCN2S(=O)(=O)c2ccccc2F)[C@H]1CO | 3.11
O=C(Nc1c(C(=O)N2CCCCC2)cnn1-c1ccccc1)c1ccco1 | 0.316
CCOC(=O)CN1C(=O)C(O)(CC(=O)c2ccccn2)c2ccccc21 (stereo unspecified) | -3.62
CS(=O)(=O)Nc1ccc2c(c1)[C@H]1C[C@@H](CC(=O)NCCc3ccccc3)O[C@@H](CO)[C@H]1O2 | 21.9
C[C@@H](NC(=O)C[C@H]1C=C[C@@H](NC(=O)CN2CCOCC2)[C@@H](CO)O1)c1ccccc1 | 0.512

----------
Collected inhibition values appear next to each entry.
molecular target: NAD-dependent protein deacylase sirtuin-5, mitochondrial (Homo sapiens) (UniProt Q9NXA8); test: blockers of sirtuin-5 deacylase activity – biochemical, fluorescence imaging, single point, set 5, primary screen (AID 652115); conditions: Purified SirT5, succinyl-peptide AMC, trypsin-coupled fluorescence; at 15 µM; active compounds read high
About 3,800 (1.2%) of roughly 330,000 compounds were called active. The list comes from a sample in which actives are over-represented; it also holds close analogues and randomly drawn compounds.

molecule | inhibition [%]
C[C@H](CO)N1C[C@H](C)[C@H](CN(C)Cc2ccc(Oc3ccccc3)cc2)Oc2c(NC(=O)CCCCCC(=O)Nc3ccccc3N)cccc2C1=O | 10.2
CCNC(=O)C[C@@H]1CC[C@@H]2[C@H](COc3ccc(NC(=O)Nc4cccc(C)c4)cc3C(=O)N2C)O1 | -1.08
Nc1nc2c(ncn2[C@@H]2O[C@H](CNCc3ccc(OCCCN4CCOCC4)cc3)[C@@H](O)[C@H]2O)c(=O)[nH]1 | 22.3
COCC(=O)Nc1ccc2c(c1)C(=O)N(C)C[C@@H](OC)[C@@H](C)CN(C(=O)Cc1ccccn1)[C@@H](C)CO2 | -3.53
C[C@@H]1CN([C@@H](C)CO)S(=O)(=O)c2ccc(C3=CCCC3)cc2O[C@@H]1CN(C)Cc1ccncc1 | 0.906
Cc1noc(C)c1NC(=O)Nc1ccc2c(c1)C(=O)N([C@@H](C)CO)C[C@@H](C)[C@H](CN(C)C)O2 | -1.93
C[C@H](O)C#Cc1ccc2c(c1)O[C@@H](CN(C)C(=O)C1CCCCC1)[C@H](C)CN([C@@H](C)CO)S2(=O)=O | 5.37
COCCNc1nc(NCc2ccc(NC(C)=O)cc2)c2sccc2n1 | 16.4
C[C@@H]1CN([C@H](C)CO)C(=O)Cc2cc(NC(=O)Cc3cn(C)c4ccccc34)ccc2O[C@@H]1CN(C)S(=O)(=O)c1ccccc1 | 0.96
C[C@H](CO)N1C[C@H](C)[C@H](CN(C)Cc2cncnc2)Oc2cc(-c3ccccc3F)ccc2S1(=O)=O | -2.9
CC(=O)Nc1ccc(CNc2nc(NCCN(C)C)nc3cc(-c4ccccc4)sc23)cc1 | 2.52
C[C@H]1CN([C@@H](C)CO)S(=O)(=O)c2ccc(C3=CCCC3)cc2O[C@@H]1CN(C)Cc1ccccc1 | 24.3
C/C=C/c1ccc2c(c1)O[C@H](CN(C)C)[C@H](C)CN([C@H](C)CO)S2(=O)=O | -0.588
CC(C)CN(C(=O)c1cccc(S(=O)(=O)N2CCCCC2)c1)C1CCS(=O)(=O)C1 (stereo not drawn) | -1.89
CC(C)C#Cc1ccc2c(c1)O[C@H](CN(C)Cc1ccccc1)[C@H](C)CN([C@@H](C)CO)S2(=O)=O | -0.3
COc1cccc(CNc2nc(NCc3cccs3)nc3ccsc23)c1 | -1.12
COCC#Cc1ccc2c(c1)O[C@H](CN(C)C(=O)CN(C)C)[C@@H](C)CN([C@H](C)CO)S2(=O)=O | 1.54
C[C@@H]1CCCCO[C@H](CN(C)S(=O)(=O)c2cn(C)cn2)[C@@H](C)CN([C@@H](C)CO)C(=O)c2cc(NC(=O)c3ccncc3)ccc2O1 | 0.794
